Each item that follows carries a reported Potency.
- System: Zika virus NS2B-NS3 protease (linked construct)
- method-description: Confirmatory screen NINDS AMC qHTS for Zika virus inhibitors (AID 1347152); further: potency means the concentration at half of the fitted maximal effect; nearly all actives have a fitted effect of over 70% in size
- condition-notes: Purified linked NS2B-NS3, AMC substrate fluorescence; series mostly up to 56.6 µM
Inconclusive results are not listed. Activity calls are given as the source filed them. The call rests on the fitted dose curve; in most records, active means well fitted inhibition curve with a large enough effect; inconclusive means small, poorly fitted or top-dose-only effect; inactive means flat fitted curve, though single readings scatter.

Here are 6 molecules together with their reported answers.
# input # get_value(readout='Potency', item= CCc1c(-c2ccccc2)c(-c2ccccc2)nn1-c1ccccc1-c1cccc(OCC(=O)O)c1 )
# output 13.9 µM (active)

# input # get_value(readout='Potency', item= CC1(C)CCC(C)(C)c2cc(C3(c4ccc(C(=O)O)cc4)OCCO3)ccc21 )
# output 44.1 µM (active)

# input # get_value(readout='Potency', item= CC1=C(C(=O)OCc2ccccc2)C(c2ccc(-c3ccccc3)cc2)NC(=O)N1CCCCCC(=O)O (configuration not stated) )
# output 22.1 µM (active)

# input # get_value(readout='Potency', item= O=C(O)/C=C/c1ccc(-c2ccc(O)c(C34CC5CC(CC(C5)C3)C4)c2)cc1 )
# output 35 µM (active)

# input # get_value(readout='Potency', item= CCCCCCOc1cc2c(cc1N(C)c1ncc(C(=O)O)cn1)C(C)(C)CCC2(C)C )
# output 31.2 µM (active)

# input # get_value(readout='Potency', item= COc1ccc(C(=O)n2c(C)c(Cc3cccc(O[C@@H](C)C(=O)O)c3)c3cc(OC(F)(F)F)ccc32)cc1 )
# output 17.5 µM (active)

The record that follows has no Potency shown yet.
# input # get_value(readout='Potency', item= O=C(O)Cc1ccc2oc(-c3ccc(NC(=O)/C=C/c4ccc(Br)cc4)c(F)c3)nc2c1 )
# output 15.6 µM (active)

###

Each item that follows carries a reported Z-AUC.
- method-description: qHTS drug screen for cell cycle checkpoint inhibitors in PARPi-resistant BRCA-mutant ovarian cancer cell lines. (AID 1963452)
- condition-notes: PEO1/OlaR viability, CellTiter-Glo luminescence, 96 h; stronger effect = lower value
In your answer, state the number alone without any accompanying words.

# input # get_value(readout='Z-AUC', item= Cc1c(NC(=O)c2cc(C(N)=O)nc3cc(F)ccc23)c(C(F)(F)F)nn1Cc1ccc(C#N)cc1 )
# output -2.01

# input # get_value(readout='Z-AUC', item= CCN1CCN(Cc2ccc(Nc3ncc(F)c(-c4cc(F)c5nc(C)n(C(C)C)c5c4)n3)nc2)CC1 )
# output 0.0865

# input # get_value(readout='Z-AUC', item= COc1cc2c(NC3CCN(CC4CCCCC4)CC3)nc(N3CCCN(C(C)C)CC3)nc2cc1OCCCN1CCCCC1 )
# output 0.256

# input # get_value(readout='Z-AUC', item= CO[C@H]1C[C@@H]2CC[C@@H](C)[C@@](O)(O2)C(=O)C(=O)N2CCCC[C@H]2C(=O)O[C@H]([C@H](C)C[C@@H]2CC[C@@H](OP(C)(C)=O)[C@H](OC)C2)CC(=O)[C@H](C)/C=C(\C)[C@@H](O)[C@@H](OC)C(=O)[C@H](C)C[C@H](C)/C=C/C=C/C=C/1C )
# output 0.099

# input # get_value(readout='Z-AUC', item= CCn1c(=O)c(-c2ccn[nH]2)cc2c(C)nc(N)nc21 )
# output -0.643

# input # get_value(readout='Z-AUC', item= CCOCc1nc2c(N)nc3ccccc3c2n1CC(C)(C)O )
# output -0.746

***
# input # get_value(readout='Z-AUC', item= COCCOc1ccc(N2CCN(CCn3ncc4c3nc(N)n3nc(-c5ccco5)nc43)CC2)cc1 )
# output -0.648
